Field: polymerase ribozyme fitness (log ratio). Provide a value for each of the variants that follow.
B1: TPR t1 (parent)
chain: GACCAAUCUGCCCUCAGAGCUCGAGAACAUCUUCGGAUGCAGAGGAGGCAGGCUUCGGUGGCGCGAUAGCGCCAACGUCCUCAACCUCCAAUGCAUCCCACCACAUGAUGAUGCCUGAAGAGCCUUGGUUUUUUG

- Variants of: B1
- assayName: polymerase ribozyme fitness, log enrichment relative to wild type (log ratio); higher = more active; in vitro selection for triplet polymerase activity
I only need the number, thanks.

Qu. Complete the entry with polymerase ribozyme fitness (log ratio) for A43U G110U
Ans. -3.52

Qu. Complete the entry with polymerase ribozyme fitness (log ratio) for A5U A29U C94U
Ans. -2.08

Qu. Complete the entry with polymerase ribozyme fitness (log ratio) for A46U G48A C104U
Ans. -1.94

Qu. Complete the entry with polymerase ribozyme fitness (log ratio) for A16G G61C C72U U81A U106A U116C
Ans. 1.38

Qu. Complete the entry with polymerase ribozyme fitness (log ratio) for C31A A111C
Ans. -3.67

Qu. Complete the entry with polymerase ribozyme fitness (log ratio) for A29G C56U C101G
Ans. -6.01

Qu. Complete the entry with polymerase ribozyme fitness (log ratio) for C72A U129A
Ans. -1.32

Qu. Complete the entry with polymerase ribozyme fitness (log ratio) for U9C G69A G77A
Ans. -2.73

Qu. Complete the entry with polymerase ribozyme fitness (log ratio) for A90C G117U
Ans. -3.98

Qu. Complete the entry with polymerase ribozyme fitness (log ratio) for C94G G110A
Ans. -2.23

Qu. Complete the entry with polymerase ribozyme fitness (log ratio) for C4U A41C C56A G63A
Ans. -4.61

Qu. Complete the entry with polymerase ribozyme fitness (log ratio) for C11G A18C U125A
Ans. -2.13

Qu. Complete the entry with polymerase ribozyme fitness (log ratio) for C104A G120U G127C
Ans. -1.76

Qu. Complete the entry with polymerase ribozyme fitness (log ratio) for U21G C64U C72U C73G
Ans. -3.77

Qu. Complete the entry with polymerase ribozyme fitness (log ratio) for C13U C20U C72A C76A
Ans. -2.68

Qu. Complete the entry with polymerase ribozyme fitness (log ratio) for `A75U`
Ans. -0.493

Qu. Complete the entry with polymerase ribozyme fitness (log ratio) for G45U C76G U112A A121U
Ans. 0.648

Qu. Complete the entry with polymerase ribozyme fitness (log ratio) for G39A C62A C89G C101U
Ans. -5.16

Qu. Complete the entry with polymerase ribozyme fitness (log ratio) for G44A G71A C73A
Ans. -2.85

Qu. Complete the entry with polymerase ribozyme fitness (log ratio) for U9C A68G
Ans. -2.42

Qu. Complete the entry with polymerase ribozyme fitness (log ratio) for G61C A84C
Ans. -1.86

Qu. Complete the entry with polymerase ribozyme fitness (log ratio) for A41C C70A U78C G128U U131C
Ans. -4.08

Qu. Complete the entry with polymerase ribozyme fitness (log ratio) for G19A G71A
Ans. -3.99

Qu. Complete the entry with polymerase ribozyme fitness (log ratio) for C49G C98G
Ans. -4.99

Qu. Complete the entry with polymerase ribozyme fitness (log ratio) for `C76U`
Ans. -0.164

Qu. Complete the entry with polymerase ribozyme fitness (log ratio) for C15U G110C
Ans. -4.52

Qu. Complete the entry with polymerase ribozyme fitness (log ratio) for G61U C79A C99A G120C
Ans. -6.8

Qu. Complete the entry with polymerase ribozyme fitness (log ratio) for C88A U126A
Ans. -3.12

Qu. Complete the entry with polymerase ribozyme fitness (log ratio) for G48A C70A C86G G107C G110U
Ans. -5.84

Qu. Complete the entry with polymerase ribozyme fitness (log ratio) for U9G A108G
Ans. -1.95

Qu. Complete the entry with polymerase ribozyme fitness (log ratio) for C12G G65C U67G A95G A108U A119U C123U
Ans. -5.89

Qu. Complete the entry with polymerase ribozyme fitness (log ratio) for C12U C80U C89U C99U G120A
Ans. -2.97

Qu. Complete the entry with polymerase ribozyme fitness (log ratio) for C56U C115U U126A
Ans. -2.48

Ref: the RNAGym collection of RNA variant scans (doi:10.1073/pnas.2313332121)
